Where do these numbers come from? They come from patent US20100063026A1.

- Test system: M. smegmatis ATCC607
- Method: In-vitro anti-bacterial activity against strain M. smegmatis ATCC607
- Conditions Used: 90% inhibitory concentration for bacterial growth; 48 hours, 37° C., Alamar Blue fluorescence
Result Type: IC90 MSM 1 ATCC607

Documented IC90 MSM 1 ATCC607 of COc1nc2ccc(Br)cc2cc1C(c1ccccc1)C(O)(CCCCN1CC2CC1CN2C1CCN(C)CC1)c1ccc2ccccc2c1 (single isomer, unassigned) : 1.3 µg/mL

Documented IC90 MSM 1 ATCC607 of COc1nc2ccc(Br)cc2cc1C(c1ccccc1)C(O)(CCCCN1CCN(C2CCN(Cc3ccccc3)C2)CC1)c1ccc2ccccc2c1 (single isomer, unassigned) [Compound 32] : 5.6 µg/mL

Documented IC90 MSM 1 ATCC607 of COc1nc2ccc(Br)cc2cc1C(c1ccccc1)C(O)(CCCCN1CCC(N2CCCCC2)CC1)c1ccc2ccccc2c1 (single isomer, unassigned) : 2.2 µg/mL

Documented IC90 MSM 1 ATCC607 of COc1nc2ccc(Br)cc2cc1C(c1ccccc1)C(O)(CCCCN1CCC(N2CCCCC2)CC1)CCc1ccccc1 (single isomer, unassigned) [Compound 11] : 12.2 µg/mL

Documented IC90 MSM 1 ATCC607 of COc1nc2ccc(Br)cc2cc1C(c1ccccc1)C(O)(CCCCN1CCC1)c1ccccc1 (single isomer, unassigned) : 2.2 µg/mL

Documented IC90 MSM 1 ATCC607 of COc1nc2ccc(Br)cc2cc1C(c1ccccc1)C(O)(CCCCN1CC2CC1CN2Cc1ccccc1)CCCc1ccccc1 (single isomer, unassigned) : 4.0 µg/mL

###

# reported IC90 MSM 1 ATCC607; entries follow
- System: M. smegmatis ATCC607
- Method: In-vitro anti-bacterial activity against strain M. smegmatis ATCC607
- Conditions Used: 90% inhibitory concentration for bacterial growth; 48 hours, 37° C., Alamar Blue fluorescence
State just the number; it will be interpreted in µg/mL.

Record excerpt, results attached:
COc1nc2ccc(Br)cc2cc1C(c1ccccc1)C(O)(CCCCN1CCCN(C)CC1)c1ccc2ccccc2c1 (stereo not shown) [Compound 34d] ... 2.1
COc1nc2ccc(Br)cc2cc1C(c1ccccc1)C(O)(CCCCN1CCC(N2CCCCC2)CC1)CCc1ccccc1 (single isomer, unassigned) [Compound 10] ... 2.4
COc1nc2ccc(Br)cc2cc1C(c1ccccc1)C(O)(CCCCN1CCCN(C)CC1)c1ccc2ccccc2c1 (stereo not shown) [Compound 35c] ... 1.5
COc1nc2ccc(Br)cc2cc1C(c1ccccc1)C(O)(CCCCN1CCN(C2CCN(Cc3ccccc3)C2)CC1)c1ccc2ccccc2c1 (single isomer, unassigned) [Compound 30] ... 2.5

Now let's try a different one.
Documented IC90 MSM 1 ATCC607 of COc1nc2ccc(Br)cc2cc1C(c1ccccc1)C(O)(CCCCNC1CC2CCC1C2)c1ccc2ccccc2c1 (stereo not shown) [Compound 40] : 0.4

###

# reported IC90; entries follow
- Test system: Staphylococcus aureus (ATCC29213)
- Method: Microtitre plate IC90 determination against non-mycobacterial strains: S. aureus
- Assay type: cell-based
- Conditions Used: Staphylococcus aureus, ATCC29213, 24 h, 90% inhibitory concentration for bacterial growth, 37° C., resazurin fluorescence, read-out: IC90 STA 1 B29213

COc1nc2ccc(Br)cc2cc1C(c1ccccc1)C(O)(CCCCN1CC2CC1CN2Cc1ccccc1)c1ccccc1 (single isomer, unassigned) [Compound 48] ... 2.1 µg/mL
COc1nc2ccc(Br)cc2cc1C(c1ccccc1)C(O)(CCCCN(C)C(=N)N)c1ccccc1 (single isomer, unassigned) [Compound 1] ... 2 µg/mL
COc1nc2ccc(Br)cc2cc1C(c1ccccc1)C(O)(CCCCN1CC2CC1CN2CCN(C)C)c1ccc2ccccc2c1 (single isomer, unassigned) [Compound 61] ... 2.2 µg/mL
COc1nc2ccc(Br)cc2cc1C(c1ccccc1)C(O)(CCCCN1CCCN(C)CC1)c1ccc2ccccc2c1 (single isomer, unassigned) [Compound 34] ... 2.1 µg/mL

Now let's try a different one.
Documented IC90 of COc1nc2ccc(Br)cc2cc1C(c1ccccc1)C(O)(CCCCNCCN(C)C)c1ccccc1 (single isomer, unassigned) [Compound 65] : 1.8 µg/mL

###

- System: M. smegmatis ATCC607
- Method: In-vitro anti-bacterial activity against strain M. smegmatis ATCC607
- Conditions Used: Mycolicibacterium smegmatis, ATCC607, 48 h, read-out: IC90 MSM 1 ATCC607, 90% inhibitory concentration for bacterial growth, 37° C., Alamar Blue fluorescence
# reported IC90; entries follow
State just the number; it will be interpreted in µg/mL.

Record excerpt, results attached:
COc1nc2ccc(Br)cc2cc1C(c1ccccc1)C(O)(CCCCN(C)CCN(C)C)c1ccccc1 (single isomer, unassigned) [Compound 51] ... 9.4
COc1nc2ccc(Br)cc2cc1C(c1ccccc1)C(O)(CCCCN1CCCNCC1)c1ccc2ccccc2c1 (single isomer, unassigned) [Compound 33] ... 0.4
COc1nc2ccc(Br)cc2cc1C(c1ccccc1)C(O)(CCCCNCCN(C)C)c1ccccc1 (single isomer, unassigned) [Compound 65] ... 1.8
COc1nc2ccc(Br)cc2cc1C(c1ccccc1)C(O)(CCCCN1CC2CC1CN2Cc1ccccc1)CCCc1ccccc1 (single isomer, unassigned) [Compound 14] ... 3.6

Documented IC90 of COc1nc2ccc(Br)cc2cc1C(c1ccccc1)C(O)(CCCCN1CC2CC1CN2C1CCN(C)CC1)c1ccc2ccccc2c1 (single isomer, unassigned) [Compound 63] : 2.3

Documented IC90 of COc1nc2ccc(Br)cc2cc1C(c1ccccc1)C(O)(CCCCN1CCC(N2CCCCC2)CC1)c1ccc2ccccc2c1 (single isomer, unassigned) [Compound 28] : 2.5

###

- Test system: Streptococcus pneumoniae (ATCC6305)
- Method: Microtitre plate IC90 determination against non-mycobacterial strains: S. pneumoniae
- Type: cell-based
- Conditions Used: 90% inhibitory concentration for bacterial growth; 24 hours, 37° C., resazurin fluorescence
# reported IC90 SPN 1 6305; entries follow
State just the number; it will be interpreted in µg/mL.

Record excerpt, results attached:
COc1nc2ccc(Br)cc2cc1C(c1ccccc1)C(O)(CCCCN(C)C1CCN(C)CC1)c1ccccc1 (single isomer, unassigned) [Compound 5] ... 2.0
COc1nc2ccc(Br)cc2cc1C(c1ccccc1)C(O)(CCCCN(C)CCc1ccccn1)c1ccccc1 (centres unmarked) [Compound 8] ... 2.2
COc1nc2ccc(Br)cc2cc1C(c1ccccc1)C(O)(CCCCN1CC2CC1CN2CCc1ccccc1)c1ccc2ccccc2c1 (single isomer, unassigned) [Compound 25] ... 0.5

Documented IC90 SPN 1 6305 of COc1nc2ccc(Br)cc2cc1C(c1ccc(Cl)cc1)C(O)(CCCCN1CC2CC1CN2Cc1ccccc1)c1ccc2ccccc2c1 (single isomer, unassigned) [Compound 37] : 0.5

Documented IC90 SPN 1 6305 of COc1nc2ccc(Br)cc2cc1C(c1ccccc1)C(O)(CCCCN1CCC1)c1ccccc1 (single isomer, unassigned) [Compound 42] : 4.3

Documented IC90 SPN 1 6305 of COc1nc2ccc(Br)cc2cc1C(c1ccccc1)C(O)(CCCCc1ccccc1)CCCCN1CC2CC1CN2Cc1ccccc1 (single isomer, unassigned) [Compound 17] : 0.8

Documented IC90 SPN 1 6305 of COc1nc2ccc(Br)cc2cc1C(c1ccccc1)C(O)(CCCCN1CCC(N2CCCCC2)CC1)CCc1ccccc1 (single isomer, unassigned) [Compound 11] : 10.9

Documented IC90 SPN 1 6305 of COc1nc2ccc(Br)cc2cc1C(c1ccccc1)C(O)(CCCCN1CCCN(C)CC1)c1ccc2ccccc2c1 (centres unmarked) [Compound 35c] : 0.4

###

- System: M. smegmatis ATCC607
- Method: In-vitro anti-bacterial activity against strain M. smegmatis ATCC607
- Conditions Used: Mycolicibacterium smegmatis, ATCC607, 48 h, read-out: IC90 MSM 1 ATCC607, 90% inhibitory concentration for bacterial growth, 37° C., Alamar Blue fluorescence
Result Type: IC90
Answer with the figure and its unit, nothing else.

Record excerpt, results attached:
COc1nc2ccc(Br)cc2cc1C(c1ccccc1)C(O)(CCCCNC1CC2CCC1C2)c1ccccc1 (stereo not shown) [Compound 60] ... 1.9 µg/mL
COc1nc2ccc(Br)cc2cc1C(c1ccc(Cl)cc1)C(O)(CCCCN1CC2CC1CN2Cc1ccccc1)c1ccc2ccccc2c1 (single isomer, unassigned) [Compound 36] ... 2.7 µg/mL
COc1nc2ccc(Br)cc2cc1C(c1ccccc1)C(O)(CCCCN(C)CCc1ccccn1)c1ccccc1 (stereo not shown) [Compound 6] ... 2 µg/mL

Now let's try a different one.
Documented IC90 of COc1nc2ccc(Br)cc2cc1C(c1ccccc1)C(O)(CCCCN1CCC1)c1ccccc1 (single isomer, unassigned) [Compound 41] : 1.7 µg/mL

###

# reported IC90; entries follow
- System: M. smegmatis ATCC607
- Method: In-vitro anti-bacterial activity against strain M. smegmatis ATCC607
- Conditions Used: Mycolicibacterium smegmatis, ATCC607, 48 h, read-out: IC90 MSM 1 ATCC607, 90% inhibitory concentration for bacterial growth, 37° C., Alamar Blue fluorescence

Measured on M. smegmatis ATCC607, COc1nc2ccc(Br)cc2cc1C(c1ccccc1)C(O)(CCCCN(C)C(=N)N)c1ccccc1 (single isomer, unassigned) has a documented IC90 of 1.8 µg/mL

Measured on M. smegmatis ATCC607, COc1nc2ccc(Br)cc2cc1C(c1ccccc1)C(O)(CCCCN1CCN(C(C)=O)CC1)c1ccccc1 (single isomer, unassigned) has a documented IC90 of 4.9 µg/mL

Measured on M. smegmatis ATCC607, COc1nc2ccc(Br)cc2cc1C(c1ccccc1)C(O)(CCCCN1CC2CC1CN2CCN(C)C)c1ccc2ccccc2c1 (single isomer, unassigned) has a documented IC90 of 2.2 µg/mL
